Biological target: Concanavalin-A (Canavalia ensiformis) (UniProt P02866)
Sequence (P02866 whole entry, looked up): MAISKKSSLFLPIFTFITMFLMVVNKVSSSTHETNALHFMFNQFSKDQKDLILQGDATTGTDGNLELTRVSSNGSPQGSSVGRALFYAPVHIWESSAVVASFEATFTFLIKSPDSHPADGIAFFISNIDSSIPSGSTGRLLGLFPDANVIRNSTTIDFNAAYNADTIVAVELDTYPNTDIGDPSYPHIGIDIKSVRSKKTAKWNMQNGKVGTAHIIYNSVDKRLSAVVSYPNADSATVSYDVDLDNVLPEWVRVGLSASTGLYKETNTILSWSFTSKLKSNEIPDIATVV
Test: ConA small-molecule binders, primary screen, artefact control for SMM control protein annotation, biochemical, small-molecule microarray, Alexa647 label, 635 nm (AID 1127);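 also: z combines 667 nm emission intensity with signal-to-noise across three replicate slides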
Settings: ConA-A647 binding fluorescence, higher = more signal

compound	measured-on	composite z-score
C=CC[C@@H]1C=C[C@H](ON=C(C)CCN2CCc3nc(CC)c(CC)cc3C2)[C@@H](CO)O1	Concanavalin-A (Canavalia ensiformis) (UniProt P02866)	-0.442
CO[C@@H]1COC(=O)CC=C[C@@H](C)[C@H](OC)COC(=O)[C@H](COCc2ccccc2)NC(=O)CC=C[C@H]1C	Concanavalin-A (Canavalia ensiformis) (UniProt P02866)	-3.99
CCN1C(=O)[C@H]2[C@H]3[C@H](O)C=CC(=O)[C@@H]3CC[C@H]2C1=O	Concanavalin-A (Canavalia ensiformis) (UniProt P02866)	0.373
CN1C(=O)C2C=CC(C(O)C(c3ccccc3)c3ccccc3)N(NC(=O)OC(C)(C)C)C2C1=O (stereo not drawn)	Concanavalin-A (Canavalia ensiformis) (UniProt P02866)	1.19
COc1cccc([C@H]2Oc3ccc(OC)cc3C(=NOC(C)CN3CCCc4nc(C)c(C)cc43)[C@@H]2O)c1 (stereo partly drawn)	Concanavalin-A (Canavalia ensiformis) (UniProt P02866)	-1.16
CC1CC/C=C\[C@H]2OC34C=CCN(Cn5nnc6ccccc65)C(=O)[C@H]3N(CCO)C(=O)[C@@H]4C2C(=O)O1 (stereo partly drawn)	Concanavalin-A (Canavalia ensiformis) (UniProt P02866)	-0.903
O=C1c2ccccc2[C@@]2(Cc3ccccc3N(C3CC3)C2=O)[C@H](c2ccc(CO)cc2)N1Cc1ccccc1C(F)(F)F	Concanavalin-A (Canavalia ensiformis) (UniProt P02866)	-0.657
CC(C)(C)OC(=O)CC[C@]1(C(N)=O)COC(c2ccc(OCCCO)cc2)=N1	Concanavalin-A (Canavalia ensiformis) (UniProt P02866)	-0.207

Reference source for all entries: PubChem BioAssay
